System: normal skin fibroblast BJ cells
Test: MTT cell viability assay
Type: cell-based, human
Conditions: Homo sapiens; BJ normal fibroblasts; 48 hours of incubation
MEASURED_QUANTITY: IC50

NC(=NN=Cc1ccccc1)c1cc(Cl)ccn1 : > 50 µM
N/C(=N\N=C\c1ccccc1)c1cncc(N2CCCC2)n1 : 42.4 µM
N/C(=N\N=C\c1ccc([N+](=O)[O-])cc1)c1cccc(Cl)n1 : 35.5 µM
N/C(=N\N=C\c1ccccc1)c1cncc(N2CCOCC2)n1 : > 50 µM
NC(=NN=Cc1ccccc1)c1cncc(Cl)n1 : > 50 µM

*Q* Quick check: IC50 on normal skin fibroblast BJ cells, item N/C(=N\N=C\c1ccc([N+](=O)[O-])cc1)c1cccc(N2CCCC2)n1 ?
*A* > 50 µM
